System: HeLa
Test: Cytotoxicity against human HeLa cells assessed as reduction in cell viability after 72 hrs by MTT assay
Format: functional, cell-based
quantity-name: IC50

{"columns": ["structure-smiles-string", "IC50"],
 "data": [
  ["C=C(C)[C@@H]1C[C@H](OC(C)=O)C2=C(C(=O)C[C@]34CO[C@@]5(CC)CC[C@](C)(O5)[C@H]3CC[C@@]24C)[C@@]1(C)CCC(=O)OC", "> 100 µM"]
]}

Give IC50 for all compounds that follow.
1. C=C(C)[C@@H]1C[C@H](OC(C)=O)[C@]23OC[C@]4(CC(=O)[C@@H]2[C@@]1(C)CCC(=O)OC)[C@@]3(C)CC[C@@]41O[C@@]2(CC)CC[C@]1(C)O2
2. C=C(C)[C@@H]1CC(=O)C2=C(C(=O)C[C@]34CO[C@@]5(CC)CC[C@](C)(O5)[C@H]3CC[C@@]24C)[C@@]1(C)CCC(=O)OC

Reply:
["> 100 µM", "65.5 µM"]
